Target: HLA-DP4 molecule DPA1*0103/DPB1*0402 (DP402) (Homo sapiens, UniProt P04440+P20036, A65V/A84D/A85E/L207M)
Construct: purified from various human B lymphocyte lines transformed with the Epstein Barr virus (EBV), which are homozygotes for DP; endogenous in cells
Sequence (P20036 29-260): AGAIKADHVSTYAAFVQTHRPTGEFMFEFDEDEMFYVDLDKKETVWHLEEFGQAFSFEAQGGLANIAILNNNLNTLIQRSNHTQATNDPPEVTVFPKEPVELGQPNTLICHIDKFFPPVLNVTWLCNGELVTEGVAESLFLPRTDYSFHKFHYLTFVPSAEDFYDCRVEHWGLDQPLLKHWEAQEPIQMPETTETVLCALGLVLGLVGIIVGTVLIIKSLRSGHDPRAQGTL
Sequence (P04440 30-258 A65V/A84D/A85E): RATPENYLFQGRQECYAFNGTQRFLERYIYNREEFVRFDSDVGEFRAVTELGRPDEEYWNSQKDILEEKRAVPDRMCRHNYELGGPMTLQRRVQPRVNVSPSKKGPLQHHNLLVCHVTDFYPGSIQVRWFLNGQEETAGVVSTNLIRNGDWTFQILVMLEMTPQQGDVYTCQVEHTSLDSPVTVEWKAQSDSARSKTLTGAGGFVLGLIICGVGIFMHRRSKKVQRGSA
Test: biochemical
Type: binding
Conditions: FIG. 1, in words; tracer bUNK1 10 nM

Primary Sequence	binding to the HLA-DP*0402 molecule
PKYVKQNTLKLAT [HA 306-318, reference compound]	do not bind
DVEVYRAVTPLGPPD [DQB 43-57, reference compound]	do not bind
EPRAPWIEQEGPEYWDQE [HCI 46-63, reference compound]	do not bind

----------
Molecular target: HLA-DP4 molecule DPA1*0103/DPB1*0402 (DP402) (Homo sapiens, UniProt P04440+P20036, A65V/A84D/A85E/L207M)
Construct: purified from various human B lymphocyte lines transformed with the Epstein Barr virus (EBV), which are homozygotes for DP; endogenous in cells
Sequence (P20036 29-260): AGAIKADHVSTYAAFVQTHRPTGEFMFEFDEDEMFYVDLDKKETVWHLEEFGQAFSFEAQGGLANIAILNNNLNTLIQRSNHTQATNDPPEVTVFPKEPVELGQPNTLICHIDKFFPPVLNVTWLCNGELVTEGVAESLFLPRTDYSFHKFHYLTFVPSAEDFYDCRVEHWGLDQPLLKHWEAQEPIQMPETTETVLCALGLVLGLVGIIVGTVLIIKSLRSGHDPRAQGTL
Sequence (P04440 30-258 A65V/A84D/A85E): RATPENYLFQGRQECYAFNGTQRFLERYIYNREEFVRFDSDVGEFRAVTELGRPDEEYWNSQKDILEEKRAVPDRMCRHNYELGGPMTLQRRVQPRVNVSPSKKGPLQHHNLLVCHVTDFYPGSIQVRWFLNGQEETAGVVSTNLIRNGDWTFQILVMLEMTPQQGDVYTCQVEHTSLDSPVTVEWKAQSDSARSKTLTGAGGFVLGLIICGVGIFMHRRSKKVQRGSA
Experiment: biochemical
Format: binding
Conditions: IC50 (nM) 402, Table XIII; binding to DPB1*0402, competition binding assay
Observable: IC50

For record CSCC[C@H](NC(=O)[C@@H](N)CC(C)C)C(=O)N[C@@H](CC(=O)O)C(=O)N[C@@H](CCCCN)C(=O)N[C@@H](CO)C(=O)N[C@@H](CC(C)C)C(=O)N[C@@H](Cc1c[nH]cn1)C(=O)N[C@H](C(=O)NCC(=O)N[C@H](C(=O)N[C@@H](CCC(N)=O)C(=O)N[C@@H](CS)C(=O)N[C@@H](C)C(=O)N[C@@H](CC(C)C)C(=O)N[C@H](C(=O)N[C@@H](CCCNC(=N)N)C(=O)N[C@@H](CCCNC(=N)N)C(=O)N[C@@H](CS)C(=O)N1CCC[C@H]1C(=O)N[C@@H](CCC(N)=O)C(=O)O)[C@@H](C)O)[C@@H](C)O)C(C)C [MART1 62-72] the listed IC50 is > 10000 nM

----------
Target: HLA-DP4 molecule DPA1*0103/DPB1*0402 (DP402) (Homo sapiens, UniProt P04440+P20036, A65V/A84D/A85E/L207M)
Construct: purified from various human B lymphocyte lines transformed with the Epstein Barr virus (EBV), which are homozygotes for DP; endogenous in cells
Assay: biochemical
Type: binding
Conditions: DP*0402 IC50 (nM), Table XV; HLA-DP4-binding activity
Observable: IC50

For record CC[C@H](C)[C@H](NC(=O)[C@H](Cc1ccccc1)NC(=O)[C@H](Cc1c[nH]cn1)NC(=O)[C@H](C)NC(=O)[C@H](CC(=O)O)NC(=O)[C@H](CCC(=O)O)NC(=O)[C@H](CCCNC(=N)N)NC(=O)[C@@H]1CCCN1C(=O)[C@@H](N)CCSC)C(=O)N[C@@H](Cc1ccc(O)cc1)C(=O)NCC(=O)N[C@@H](Cc1ccc(O)cc1)C(=O)N1CCC[C@H]1C(=O)N[C@@H](CCCCN)C(=O)N[C@@H](CCCCN)C(=O)NCC(=O)N[C@@H](Cc1c[nH]cn1)C(=O)NCC(=O)N[C@@H](Cc1c[nH]cn1)C(=O)N[C@@H](CO)C(=O)O the listed IC50 is > 10000 nM

----------
Molecular target: DP401 encoded by the DPA1*0103/DPB1*0401 allele (Homo sapiens, UniProt P04440+P20036)
Sequence (P20036 29-260): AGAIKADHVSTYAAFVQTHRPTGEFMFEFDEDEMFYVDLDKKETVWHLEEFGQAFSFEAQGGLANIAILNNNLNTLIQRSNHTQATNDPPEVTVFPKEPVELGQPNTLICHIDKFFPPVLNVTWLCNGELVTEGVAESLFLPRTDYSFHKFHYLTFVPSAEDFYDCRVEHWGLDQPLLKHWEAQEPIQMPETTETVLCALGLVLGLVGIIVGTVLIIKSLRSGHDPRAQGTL
Sequence (P04440 30-258): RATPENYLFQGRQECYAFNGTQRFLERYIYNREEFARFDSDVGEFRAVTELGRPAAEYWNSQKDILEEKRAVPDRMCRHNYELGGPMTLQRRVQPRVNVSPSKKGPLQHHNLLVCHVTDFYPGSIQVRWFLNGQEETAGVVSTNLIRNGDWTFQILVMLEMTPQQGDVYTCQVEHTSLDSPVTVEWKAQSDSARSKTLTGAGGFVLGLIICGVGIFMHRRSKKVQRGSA
Conditions: in words, summary of table V
Observable: DP4-binding capacity

Illustrative cases are given below, each with its answer.
Primary Sequence	DP4-binding capacity
IAFNSGMEPGVVAEKV [bMT 451-466, reference compound]	low
RELWWVFYAGDRALEEPHAE [bUL21 283-302]	intermediate
LLTQHFVQENYLEY [bMAG 245-258]	intermediate
GPGAPADVQYDLYLNVANRR [bIL3 127-146, reference compound]	high

For record FNNFTVSFWLRVPKVSA [bTT 947-963] the listed DP4-binding capacity is low

For record GVQIVRQIRSGERFLKIWSQ [bNS-p2, reference compound] the listed DP4-binding capacity is intermediate

----------
Target: HLA-DP4 molecule DPA1*0103/DPB1*0401 (DP401) (Homo sapiens, UniProt P04440+P20036)
Construct: purified from various human B lymphocyte lines transformed with the Epstein Barr virus (EBV), which are homozygotes for DP; endogenous in cells
Experiment: biochemical
Assay type: binding
Conditions: DP*0401 IC50 (nM), Table XV; HLA-DP4-binding activity
Observable: IC50

For record CSCC[C@H](NC(=O)[C@@H](N)CC(C)C)C(=O)N[C@@H](CC(=O)O)C(=O)N[C@@H](CCCCN)C(=O)N[C@@H](CO)C(=O)N[C@@H](CC(C)C)C(=O)N[C@@H](Cc1c[nH]cn1)C(=O)N[C@H](C(=O)NCC(=O)N[C@H](C(=O)N[C@@H](CCC(N)=O)C(=O)N[C@@H](CS)C(=O)N[C@@H](C)C(=O)N[C@@H](CC(C)C)C(=O)N[C@H](C(=O)N[C@@H](CCCNC(=N)N)C(=O)N[C@@H](CCCNC(=N)N)C(=O)N[C@@H](CS)C(=O)N1CCC[C@H]1C(=O)N[C@@H](CCC(N)=O)C(=O)O)[C@@H](C)O)[C@@H](C)O)C(C)C [MART1 62-72] the listed IC50 is > 10000 nM
